These entries and their values trace back to patent US12528818B2.

Tested on: pERK in NCI-H358 cells
Assay: Cell-based pERK HTRF assay (pERK inhibition in H358 cells)
Conditions: pERK inhibition IC50, NCI-H358 cells, 30 min incubation; read-out: PERK in H358 cell
assayEndpoint: IC50

{"molecule": "C=CC(=O)N1CC[C@@H](N(C)c2nc(OC[C@@]34CCCN3C[C@H](F)C4)nc3c(Cl)c(-c4ccc(F)c5sc(N)nc45)c(C(F)(F)F)cc23)C1 (single isomer, unassigned) [Compound 303]", "IC50": "100 to 1000 nM"}
{"molecule": "C=CC(=O)N1CC[C@@H](N(C)c2nc(OC[C@@H]3CC(F)(F)CN3C)nc3c(F)c(-c4ccc(F)c5sc(N)nc45)c(C(F)(F)F)cc23)C1 (atropisomer, axis not shown) [Compound 229]", "IC50": "> 1000 nM"}
{"molecule": "C=CC(=O)N1CC[C@@H](N(C)c2nc(OC[C@@H]3CC4(CC4)CN3C)nc3c(F)c(-c4ccc(F)c5sc(N)nc45)c(C(F)(F)F)cc23)C1 (atropisomer, axis not shown) [Compound 256]", "IC50": "< 100 nM"}
{"molecule": "C=CC(=O)N1C[C@H](C)N(c2nc(OC[C@@]34CCCN3C[C@H](F)C4)nc3c(F)c(-c4ccc(F)c5sc(N)nc45)c(C(F)(F)F)cc23)C[C@H]1C (atropisomer, axis not shown) [Compound 268]", "IC50": "< 100 nM"}

Attention now shifts to the item below.
// returns reported IC50 for input C=CC(=O)N1CC[C@@H](N(c2nc(OC[C@@]34CCCN3C[C@H](F)C4)nc3c(F)c(-c4ccc(F)c5sc(N)nc45)c(C(F)(F)F)cc23)C2CC2)C1 (single isomer, unassigned) [Compound 237]
> 1000 nM
